Provenance of the data: patent US9233961B2

Parameter: EC50. Scope: all listed entries.
- System: Leishmania donovani axenic amastigote parasites
- Run Description: Leishmania donovani axenic amastigote proliferation assay
- Type: cell-based
- Test Settings: axenic amastigotes in vitro, read-out: L. donovani amastigotes EC50
I only need the number, in µM, no unit after it.

Request: Given the compound CC(C)OC(=O)Nc1ccc(Cl)c(-c2nc3ncc(-c4ccccc4NC(=O)OC(C)C)cc3[nH]2)c1 [Compound 335] , what is its reported EC50?
Result: 0.6

Request: Given the compound Cc1cnc2nc(-c3cc(NC(=O)c4ccc(C(F)(F)F)cn4)ccc3Cl)[nH]c2c1 [Compound 115] , what is its reported EC50?
Result: 16.8

Request: Given the compound COCCOc1ccc(-c2cnc3nc(-c4cc(NC(=O)N5CCCC5)ccc4F)[nH]c3c2)cc1 [Compound 312] , what is its reported EC50?
Result: 1.75

Request: Given the compound Cc1c[nH]nc1-c1cnc2nc(-c3cc(NC(=O)c4ccco4)ccc3Cl)[nH]c2c1 [Compound 73] , what is its reported EC50?
Result: 0.82

Request: Given the compound Cc1cnc2nc(-c3cc(NC(=O)c4cccc(N5CCOCC5)c4)ccc3Cl)[nH]c2c1 [Compound 195] , what is its reported EC50?
Result: 21.2

Request: Given the compound O=C(Nc1ccc(Cl)c(-c2nc3ncc(-c4ccc(OCCn5ccnc5)cc4)cc3[nH]2)c1)c1ccco1 [Compound 71] , what is its reported EC50?
Result: 4

* * *

- System: Leishmania donovani axenic amastigote parasites
- Run Description: Leishmania donovani axenic amastigote proliferation assay
- Type: cell-based
- Test Settings: axenic amastigotes in vitro, read-out: L. donovani amastigotes EC50
Parameter: log10 EC50. Scope: all listed entries.
Hi team, quick reminder: these entries are log10 of EC50 (nM).

The examples below pair each entry with its known result.
# Compound, log10 EC50
data = [
    ("Cc1cnc2nc(-c3cc(NC(=O)c4ccco4)ccc3Cl)[nH]c2c1", 3.34),
    ("O=C(Nc1ccc(F)c(-c2nc3ncc(Cl)cc3[nH]2)c1)c1ccco1", 2.78),
    ("CCOC(=O)Nc1ccc(Cl)c(-c2nc3ncc(-c4ccc5c(c4)CC(=O)N5)cc3[nH]2)c1", 2.84),
    ("CNc1ccc(-c2cnc3nc(-c4cc(NC(=O)c5cc(C)cs5)ccc4Cl)[nH]c3c2)cc1", 3.29),
    ("C[Si](C)(C)CCOCn1cnc(-c2cnc3nc(-c4cc(NC(=O)N5CCCC5)ccc4Cl)[nH]c3c2)c1", 2.32),
]

Next, consider the following compound.
Request: Given the compound CC(C)OC(=O)Nc1ccc(Cl)c(-c2nc3ncc(-c4ccccc4)cc3[nH]2)c1 , what is its reported log10 EC50?
Result: 2.82

* * *

- Tested on: Leishmania donovani axenic amastigote parasites
- Run Description: Leishmania donovani axenic amastigote proliferation assay
- Type: cell-based
- Test Settings: axenic amastigotes in vitro, read-out: L. donovani amastigotes EC50
So basically, if EC50 comes in under 2000 nM it's criterion met, and if it's 2000 nM or more it's criterion not met.

Some entries whose results are on file:
# Compound, Assigned Label
data = [
    ("Cc1cnc2nc(-c3cc(NC(=O)c4c(C)noc4C)ccc3Cl)[nH]c2c1 [Compound 105]", "criterion not met"),
    ("Cc1cnc2nc(-c3cc(NC(=O)c4cscn4)ccc3Cl)[nH]c2c1 [Compound 205]", "criterion not met"),
    ("Cc1ncoc1C(=O)Nc1ccc(F)c(-c2nc3ncc(Br)cc3o2)c1 [Compound 409]", "criterion not met"),
    ("C=Cc1cnc2nc(-c3cc(NC(=O)c4ccco4)ccc3Cl)[nH]c2c1 [Example 74]", "criterion met"),
]

Request: Does the reported EC50 of Cc1cnc2nc(-c3cc(NC(=O)Cc4cccnc4)ccc3Cl)[nH]c2c1 [Compound 97] stay below 2000 nM?
Result: criterion not met

Request: Does the reported EC50 of O=C(Nc1ccc(-c2cnc3nc(-c4cc(NC(=O)c5ccco5)ccc4Cl)[nH]c3c2)cc1)NC1CC1 [Compound 45] stay below 2000 nM?
Result: criterion met

Request: Does the reported EC50 of Nc1ccc(-c2cnc3nc(-c4cc(NC(=O)Nc5ccc(C(F)(F)F)cc5)ccc4F)oc3c2)cn1 [Compound 400] stay below 2000 nM?
Result: criterion met

Request: Does the reported EC50 of O=C(Nc1ccc(C(F)(F)F)cc1)Nc1ccc(F)c(-c2nc3ncc(N4CCCCC4)cc3o2)c1 [Compound 397] stay below 2000 nM?
Result: criterion not met

* * *

Parameter: pEC50. Scope: all listed entries.
- Tested on: L. donovani HU3 strain in mouse peritoneal macrophages
- Run Description: Assay for proliferation of Leishmania parasites in mouse peritoneal macrophages
- Assay type: cell-based, Leishmania donovani
- Test Settings: Leishmania donovani, Peritoneal macrophage, read-out: L. donavani Macrophage EC50
- Text: Assay for Proliferation of Leishmania Parasites The activity of a compound according to the present invention for inhibition of parasitemai can be assessed by the parasite proliferation assay. The assay measures the increase in the parasite number in the assayed plate well using a DNA intercalating dye, SYBR Green I® dye (INVITROGEN) to stain Leishmania cell nuclei. It is understood that the assays illustrate the invention without in any way limiting the scope of the invention. […]
// pEC50 here means minus log10 of the molar concentration (mol/L)

The examples below pair each entry with its known result.
# Test Smiles, pEC50
measured = [
    ("Cc1cnc2nc(-c3cc(NC(=O)C4CCCC4)ccc3Cl)[nH]c2c1", 4.67),
    ("O=C(Nc1ccc(Cl)c(-c2nc3ncc(-c4cccnc4)cc3[nH]2)c1)c1ccco1", 5.79),
    ("CCOC(=O)Nc1ccc(Cl)c(-c2nc3ncc(-c4ccc5c(c4)CC(=O)N5)cc3[nH]2)c1", 5.48),
]

Request: Given the compound Cc1cnc2nc(-c3cc(NC(=O)c4ccc[nH]4)ccc3Cl)[nH]c2c1 , what is its reported pEC50?
Result: 5.19

* * *

- System: L. donovani HU3 strain in mouse peritoneal macrophages
- Run Description: Assay for proliferation of Leishmania parasites in mouse peritoneal macrophages
- Type: cell-based, Leishmania donovani
- Test Settings: Leishmania donovani, Peritoneal macrophage, read-out: L. donavani Macrophage EC50
Value Type: EC50 (µM)
I only need the number, in µM, no unit after it.

# Test Smiles, Quantity Unit, EC50
data = [
    ("Cc1cnc2nc(-c3cc(NC(=O)c4ccc(CN(C)C)o4)ccc3Cl)[nH]c2c1", "µM", 4.9),
    ("Cc1cnc2nc(-c3cc(NC(=O)c4ccc(Cl)o4)ccc3Cl)[nH]c2c1", "µM", 3.09),
    ("COCCOc1ccc(-c2cnc3nc(-c4cc(NC(=O)N5CCCC5)ccc4F)[nH]c3c2)cc1", "µM", 3.7),
    ("O=C(Nc1ccc(Cl)c(-c2nc3ncc(-c4cnn(CCN5CCOCC5)c4)cc3[nH]2)c1)c1ccco1", "µM", 3.14),
    ("CCCc1cnc2nc(-c3cc(NC(=O)c4ccco4)ccc3Cl)[nH]c2c1", "µM", 25.6),
    ("Cc1cnc2nc(-c3cc(NC(=O)c4cocn4)ccc3Cl)[nH]c2c1", "µM", 26.4),
    ("COCCOC(=O)Nc1ccc(Cl)c(-c2nc3ncc(Br)cc3[nH]2)c1", "µM", 6.5),
    ("Cc1cnc2nc(-c3cc(NC(=O)c4cnccn4)ccc3Cl)[nH]c2c1", "µM", 13.4),
]

Request: Given the compound O=C(Nc1ccc(Cl)c(-c2nc3ncc(-c4ccc(OCCn5cccn5)cc4)cc3[nH]2)c1)c1ccco1 , what is its reported EC50?
Result: 0.97

Request: Given the compound Cc1cnc2nc(-c3cc(NC(=O)c4ccc(C(C)(C)C)o4)ccc3Cl)[nH]c2c1 , what is its reported EC50?
Result: 20.2

* * *

- Test system: Leishmania donovani axenic amastigote parasites
- Run Description: Leishmania donovani axenic amastigote proliferation assay
- Assay type: cell-based
- Test Settings: 48 h, L. donovani axenic amastigotes, 2 day incubation, Cell TiterGlo luminescence, read-out: EC50
- Procedure: Leishmania Donovani Axenic Amastigote Proliferation Assay Leishmania donovani axenic amastigote parasites are grown at 37° C., 5% CO2 in media made of RPMI 1640, 4 mM L-glutamine, 20% heat inactivated FBS, 100 units/ml of penicillin and 100 μg/ml of streptomycin, 23 μM Folic Acid, 100 μM Adenosine, 22 mM D-glucose, 25 mM MES. The pH of media is adjusted to 5.5 at 37° C. using HCl. […] The luminescence signal of each well is measured using the Envision reader (Perkin Elmer). […]
pEC50: −log10 of the molar value.
Value Type: pEC50

The examples below pair each entry with its known result.
# Test Smiles, pEC50
data = [
    ("CC(C)CC(=O)Nc1ccc(-c2cnc3nc(-c4cc(NC(=O)c5ccco5)ccc4Cl)[nH]c3c2)cc1", "~7.10"),
    ("CNc1ccc(-c2cnc3nc(-c4cc(NC(=O)N5CCCC5)ccc4Cl)[nH]c3c2)cc1", "~7.10"),
]

Next, consider the following molecule.
Request: API: value(readout= pEC50, system= Leishmania donovani axenic amastigote parasites, query= COC(=O)Nc1ccc(-c2cnc3nc(-c4cc(NC(=O)OC(C)C)ccc4Cl)[nH]c3c2)cc1 )
Result: ~7.10
